Where these numbers come from: paper PMC5540273

Tested on: LCK
RUN_CONDITIONS: concentration: 1 μM, replicates: in singlicate; n = 1;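 also: KINOMEscan kinase panel screen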
In this scheme, each record receives a class according to its %Inh; the ranges are low (below 5%), intermediate (5% to below 10%), high (10% or more)

* Cc1ccc(-c2cc(-c3c[nH]nc3-c3ccccn3)ccn2)cc1 | intermediate
* Cc1cc(N2Cc3ccccc3C2)nc(Nc2ccc(S(=O)(=O)N3CCOCC3)cc2)n1.Cl | low
* COc1ccc(Nc2nccc(-c3cccc(NC(=O)c4cc5cc(F)ccc5[nH]4)c3)n2)cc1 | high
* CC(=O)Nc1nc2cnc(Nc3cc(NC(=O)c4cccc(CCC#N)c4)ccc3C)nc2s1 | high
* Cc1csc(-c2nc(Nc3ccncc3)c3ccccc3n2)n1 | low
* O=C(Nc1n[nH]c2nc(-c3nccs3)c(Br)cc12)C1CCCC1 | intermediate
* CCn1c(-c2ccccn2)nc2cnccc21 | high
* Cc1cccc(-c2cc(Nc3ccncc3)c3ccccc3n2)n1 | intermediate
* Cl.NC(=O)c1cccc(Nc2nccc(Nc3ccc(Oc4cccc(Cl)c4)c(Cl)c3)n2)c1 | high
* O=C(Nc1n[nH]c2nc(-c3nccs3)c(Br)cc12)C1CC1 | low
* COc1cc2ncnc(Nc3ccc4nc(-c5ccccc5)[nH]c4c3)c2cc1OC.Cl | high
* O=C(O)COc1ncnc2cc(-c3ccc4[nH]ncc4c3)sc12 | low
* Cn1ccc2ncnc(Oc3cccc(C(=O)Nc4ccccc4)c3)c21 | intermediate
* CC1=C(C(=O)Nc2cc3cn[nH]c3cc2F)C(c2ccc(C(F)(F)F)cc2)CC(=O)N1 (stereo not drawn) | high
* COc1cc2ncn(-c3cc(OCC4CCCO4)c(C(N)=O)s3)c2cc1OC (stereo not drawn) | intermediate
* COc1cccc(NC(=O)NC2CCN(c3ccnc(Nc4ccc(F)cc4)n3)C2)c1 (stereo not drawn) | low
* O=C1NC(=O)C(N2CCc3ccccc32)=C1c1ccccc1Cl | high
* COC(=O)c1c(-c2ccccc2)c2cc(C(=O)O)ccc2c(=O)n1Cc1ccccc1 | low

* * *

Tested on: CSNK1G3
RUN_CONDITIONS: concentration: 1 μM, replicates: in singlicate; n = 1
Known %Inh of a selection of molecules
ENDPOINT: %Inh (%)

* Cc1csc(-c2nc(Nc3ccncc3)c3ccccc3n2)n1 | 0
* Cc1cc(N2Cc3ccccc3C2)nc(Nc2ccc(S(=O)(=O)N3CCOCC3)cc2)n1.Cl | 19
* COc1ccc(Nc2nccc(-c3cccc(NC(=O)c4cc5cc(F)ccc5[nH]4)c3)n2)cc1 | 32
* Cl.NC(=O)c1cccc(Nc2nccc(Nc3ccc(Oc4cccc(Cl)c4)c(Cl)c3)n2)c1 | 17
* O=S(=O)(c1ccc(-c2ccnc3[nH]ccc23)cc1)N1CCCC1 | 37
* COc1ccccc1-c1ccc2c(NC(=O)C3CC3)n[nH]c2n1 | 11
* Cc1ccccc1-n1cnc2c(N)ncnc21 | 0
* COc1cccc(NC(=O)NC2CCN(c3ccnc(Nc4ccc(F)cc4)n3)C2)c1 (stereo not shown) | 27
* CCn1c(-c2ccccn2)nc2cnccc21 | 0
* Cc1cccc(-c2nc(-c3ccc(S(C)(=O)=O)cc3)sc2-c2ccnc(NCCc3ccccc3)c2)c1 | 0
* Nc1ncnc2[nH]c(-c3ccccc3)nc12 | 9
* CS(=O)(=O)c1ccc(-c2c(-c3ncn[nH]3)sc(N3CCOCC3)c2C#N)cc1 | 0
* CCn1c(-c2cccnc2O)nc2cnccc21 | 0
* O=C(Nc1ccc2c(c1)OCO2)NC1CCN(c2ccnc(Nc3ccc(F)cc3)n2)C1 (stereo not shown) | 8
* O=C(O)COc1ncnc2cc(-c3ccc4[nH]ncc4c3)sc12 | 34
* COc1ccccc1CNC(=O)c1cc(C(=O)c2ccccc2C)c[nH]1 | 9
* COc1cc2nccc(Nc3ccc(NC(=O)c4ccc(C)cc4)c(O)c3)c2cc1OC.Cl | 30
* Cc1cc(NCC(c2ccccc2)c2ccccc2)nc(NCc2ccc(C(F)(F)F)cc2)n1 | 22
* Cc1ccc(-c2cc(-c3c[nH]nc3-c3ccccn3)ccn2)cc1 | 24

* * *

System: EIF2AK1
RUN_CONDITIONS: concentration: 1 μM, replicates: in singlicate; n = 1
Known %Inh of a selection of compounds
ENDPOINT: %Inh (%)

• Cc1cccc(-c2nc(Nc3ccncc3)c3ccccc3n2)n1 = 0
• O=C(Nc1n[nH]c2nc(-c3nccs3)c(Br)cc12)C1CC1 = 1
• COc1ccc(Nc2nccc(-c3cccc(NC(=O)c4cc5cc(F)ccc5[nH]4)c3)n2)cc1 = 10
• Cc1cccc(-c2nc(Nc3cccc(C(N)=O)c3)c3ccccc3n2)n1 = 0
• Cc1c(Cn2ccn3c(=O)cc(N4CCOCC4)nc23)cccc1C(F)(F)F = 2
• COc1cc2ncn(-c3cc(OCC4CCCO4)c(C(N)=O)s3)c2cc1OC (stereo not shown) = 0
• O=C1NC(=O)C(N2CCc3ccccc32)=C1c1ccccc1Cl = 0
• Clc1cc(Cl)cc(Nc2ccnc(Nc3cc(Cl)cc(Cl)c3)n2)c1 = 0
• Cc1cccc(-c2nc(C)cc(Nc3ccncc3)n2)n1 = 0
• Nc1ncnc2[nH]c(-c3ccccc3)nc12 = 100
• Cc1cccc(-c2nc(Nc3ccc4[nH]ncc4c3)c3ccccc3n2)n1 = 5
• COc1ccc(CNC(=O)NC2CCN(c3ccnc(Nc4cc(OC)c(OC)c(OC)c4)n3)C2)cc1 (stereo not shown) = 0
• CC1=C(C(=O)Nc2cc3cn[nH]c3cc2F)C(c2ccc(C(F)(F)F)cc2)CC(=O)N1 (stereo not shown) = 0
• COc1cccc(-c2cc(-c3c[nH]nc3-c3ccccn3)ccn2)c1 = 2
• O=C(Nc1ccc2c(c1)OCO2)NC1CCN(c2ccnc(Nc3ccc(F)cc3)n2)C1 (stereo not shown) = 0
• COC(=O)c1c(-c2ccccc2)c2cc(OC)ccc2c(=O)n1Cc1ccccc1 = 5
• CCn1c(-c2ccccn2)nc2cnccc21 = 0
• O=C(O)COc1ncnc2cc(-c3ccc4[nH]ncc4c3)sc12 = 0
• CN1C(=O)C(Nc2ccc(Cl)c(C(=O)O)c2)=C(c2ccc(Cl)cc2)C1=O = 0

* * *

Test system: NDR2
RUN_CONDITIONS: concentration: 1 μM, replicates: in singlicate; n = 1
ENDPOINT: %Inh (%)

* Cc1cc(NCC(c2ccccc2)c2ccccc2)nc(NCc2ccc(C(F)(F)F)cc2)n1 | 16
* Cl.NC(=O)c1cccc(Nc2nccc(Nc3ccc(Oc4cccc(Cl)c4)c(Cl)c3)n2)c1 | 0
* O=C(Nc1ccccc1)Nc1cccc(Oc2ccc3nccn3n2)c1 | 0

* * *

Tested on: LOK
Construct: gene STK10
RUN_CONDITIONS: concentration: 1 μM, replicates: in singlicate; n = 1
Record criterion met whenever %Inh is at 2% or higher; record criterion not met when lower.

* COc1ccc2nc(-c3cccc(C)n3)nc(Nc3ccncc3)c2c1 [GSK204919] | criterion not met
* Cc1cccc(-c2nc(-c3ccc(S(C)(=O)=O)cc3)sc2-c2ccnc(NCCc3ccccc3)c2)c1 | criterion not met
* CS(=O)(=O)c1ccc(-c2c(-c3ncn[nH]3)sc(N3CCOCC3)c2C#N)cc1 | criterion met
* CC(C)(C)c1ccc(C(=O)Nc2cn3cc(Cl)ccc3n2)cc1 | criterion met
* O=C(Nc1n[nH]c2nc(-c3nccs3)c(Br)cc12)C1CC1 [SB-742251] | criterion not met
* O=S(=O)(c1ccc(-c2ccnc3[nH]ccc23)cc1)N1CCCC1 [GSK846226] | criterion not met
* Fc1cc(Cl)ccc1Nc1ccnc2cc(I)ccc12 [GW551191] | criterion not met
* Cl.NC(=O)c1cccc(Nc2nccc(Nc3ccc(Oc4cccc(Cl)c4)c(Cl)c3)n2)c1 [GW659008] | criterion met

* * *

Tested on: MLCK
Construct: gene MYLK3
RUN_CONDITIONS: concentration: 1 μM, replicates: in singlicate; n = 1
Record t whenever %Inh is at 20% or higher; record f when lower.

- Cc1ccc(NC(=O)Nc2cc(C(C)(C)C)nn2-c2ccccc2)cc1: f
- CC1=C(C(=O)Nc2cc3cn[nH]c3cc2F)C(c2ccc(C(F)(F)F)cc2)CC(=O)N1 (stereo not drawn): f
- O=C(O)COc1ncnc2cc(-c3ccc4[nH]ncc4c3)sc12: f
- O=C(Nc1n[nH]c2nc(-c3nccs3)c(Br)cc12)C1CC1: t
- COc1ccccc1-c1ccc2c(NC(=O)C3CC3)n[nH]c2n1: f
- Cc1ccccc1-n1cnc2c(N)ncnc21: f

* * *

System: TSSK1B
RUN_CONDITIONS: concentration: 1 μM, replicates: in singlicate; n = 1
Known %Inh of a selection of compounds
ENDPOINT: %Inh (%)

• COC(=O)c1c(-c2ccccc2)c2cc(C(=O)O)ccc2c(=O)n1Cc1ccccc1 = 0
• Cc1c(O)cccc1Nc1ccnc2ccc(C(F)(F)F)cc12.Cl [GW466413] = 0
• Cc1c(Cn2ccn3c(=O)cc(N4CCOCC4)nc23)cccc1C(F)(F)F [GSK2289044] = 12
• Cl.Oc1ccc(-c2nc(-c3ccccc3)[nH]c2-c2ccncc2)cc1 [SB-428218] = 0
• COc1cccc(NC(=O)NC2CCN(c3ccnc(Nc4ccc(F)cc4)n3)C2)c1 (stereo not drawn) [GSK1379721] = 9
• Cl.c1ccc(-c2n[nH]cc2-c2ccnc(-c3ccc(CN4CCOCC4)cc3)c2)nc1 [GW776245] = 0
• Fc1cc(Cl)ccc1Nc1ccnc2cc(-c3ccc(CN4CCCCC4)o3)ccc12 [GW560116] = 0
• Clc1cc(Cl)cc(Nc2ccnc(Nc3cc(Cl)cc(Cl)c3)n2)c1 [GSK175726] = 0
• Cc1ccc(-c2cc(-c3c[nH]nc3-c3ccccn3)ccn2)cc1 [GW684088] = 0
